- System: MCF7
- methodNotes: Growth inhibition of human MCF7 cells incubated for 72 hrs by SRB assay
- Type: functional
resultType: GI50 (µM)

These recorded examples may help you get a feel for the data.
molecularstring=O=C1Nc2cc(-c3ccc(NS(=O)(=O)c4ccc([N+](=O)[O-])cc4)cc3)ccc2/C1=C/c1ccc[nH]1 resulttype=GI50 readoutunit=µM observed=1.73
molecularstring=O=C1Nc2cc(-c3ccc(NS(=O)(=O)c4cccc(Br)c4)cc3)ccc2/C1=C/c1ccc[nH]1 resulttype=GI50 readoutunit=µM observed=0.0302

[a] O=C1Nc2cc(-c3ccc(NS(=O)(=O)c4ccc(C(F)(F)F)cc4)cc3)ccc2/C1=C/c1ccc[nH]1
[b] O=C1Nc2cc(-c3ccc(NS(=O)(=O)c4ccc5ccccc5c4)cc3)ccc2/C1=C/c1ccc[nH]1
Prompt: Lab note: check whether a or b has the lower measured GI50. Give the label of your selection.
Completion: b

====

- Tested on: MCF7
- methodNotes: Antiproliferative activity against human MCF7 cells assessed as cell growth at 10 uM incubated for 72 hrs by SRB assay relative to control
- Assay type: functional
- conditionDetails: read-out: Activity
resultType: growth at 10 µM (%)
Just the number in %, nothing appended.

These recorded examples may help you get a feel for the data.
molecularstring=O=C1Nc2cc(-c3ccc(NS(=O)(=O)c4ccc(Br)cc4)cc3)ccc2/C1=C/c1ccc[nH]1 targetorsystem=MCF7 observed=-77.4
molecularstring=Cc1ccc(S(=O)(=O)Nc2ccc(-c3ccc4c(c3)NC(=O)/C4=C\c3ccc[nH]3)cc2)cc1 targetorsystem=MCF7 observed=3.35

Record Cc1[nH]c(/C=C2\C(=O)Nc3cc(-c4ccc(NS(=O)(=O)c5ccc(F)c(Cl)c5)cc4)ccc32)c(C)c1NS(C)(=O)=O has MCF7 growth at 10 µM equal to 4.18

Record O=C1Nc2cc(-c3ccc(NS(=O)(=O)c4cccc(Cl)c4)cc3)ccc2/C1=C/c1ccc[nH]1 has MCF7 growth at 10 µM equal to -6.08

Record CC(=O)Nc1ccc(S(=O)(=O)Nc2ccc(-c3ccc4c(c3)NC(=O)/C4=C\c3ccc[nH]3)cc2)cc1 has MCF7 growth at 10 µM equal to 14.3

Record O=C1Nc2cc(-c3ccc(NS(=O)(=O)c4ccc5ccccc5c4)cc3)ccc2/C1=C/c1ccc[nH]1 has MCF7 growth at 10 µM equal to -51.9

Record O=C1Nc2cc(-c3ccc(NS(=O)(=O)c4ccc(-c5ccccc5)cc4)cc3)ccc2/C1=C/c1ccc[nH]1 has MCF7 growth at 10 µM equal to -25.2

Record CCN(CC)CCNC(=O)c1c(C)[nH]c(/C=C2\C(=O)Nc3cc(-c4ccc(NS(=O)(=O)c5ccc(F)c(Cl)c5)cc4)ccc32)c1C has MCF7 growth at 10 µM equal to -85.2

Record O=C1Nc2cc(-c3ccc(NS(=O)(=O)c4ccc(C(F)(F)F)cc4)cc3)ccc2/C1=C/c1ccc[nH]1 has MCF7 growth at 10 µM equal to 0.78

Record COc1ccc(S(=O)(=O)Nc2ccc(-c3ccc4c(c3)NC(=O)/C4=C\c3ccc[nH]3)cc2)cc1OC has MCF7 growth at 10 µM equal to -39

Record O=C1Nc2cc(-c3ccc(NS(=O)(=O)c4cccc(Br)c4)cc3)ccc2/C1=C/c1ccc[nH]1 has MCF7 growth at 10 µM equal to -18.4

Record O=C1Nc2cc(-c3ccc(NS(=O)(=O)c4ccc([N+](=O)[O-])cc4)cc3)ccc2/C1=C/c1ccc[nH]1 has MCF7 growth at 10 µM equal to -23.6
